Data provenance is ChEMBL document CHEMBL3046591.

Test system: Enterococcus faecalis
Assay: Antibacterial activity against Enterococcus faecalis ATCC 29212 after 18 hr by agar well diffusion method
Assay type: functional
Active and inactive are the calls of the source. The rule behind the calls is not given here.
measurement label: inhibition zone (IZ)

These solved cases illustrate the format of a correct answer.
Cc1nn(Cc2nnc(S)n2-c2ccccc2)c(=O)n1Cc1ccco1	inactive
Cc1n[nH]c(=O)n1Cc1ccco1	inactive
O=c1n(S(=O)(=O)c2ccc(Cl)cc2)nc(Cc2ccccc2)n1Cc1ccco1	10 mm
Cc1nn(S(=O)(=O)c2ccc([N+](=O)[O-])cc2)c(=O)n1Cc1ccco1	6 mm

Recorded result, Cc1nn(S(=O)(=O)c2ccccc2)c(=O)n1Cc1ccco1 , inhibition zone (IZ): 25 mm

Recorded result, O=c1n(S(=O)(=O)c2ccc(Br)cc2)nc(Cc2ccccc2)n1Cc1ccco1 , inhibition zone (IZ): 8 mm

Recorded result, CCCS(=O)(=O)n1nc(Cc2ccccc2)n(Cc2ccco2)c1=O , inhibition zone (IZ): 8 mm

Recorded result, O=c1[nH]nc(Cc2ccccc2)n1Cc1ccco1 , inhibition zone (IZ): 10 mm

Recorded result, CCOC(=O)Cn1nc(C)n(Cc2ccco2)c1=O , inhibition zone (IZ): inactive

Recorded result, Cc1n[nH]c(=O)n1CC1CCCO1 (stereo unspecified) , inhibition zone (IZ): 10 mm

Recorded result, Cc1nn(Cc2n[nH]c(=O)n2Cc2ccccc2)c(=O)n1Cc1ccco1 , inhibition zone (IZ): inactive
